Molecular target: NHERF4_4, Q86UT5
Sequence (Q86UT5 464-550): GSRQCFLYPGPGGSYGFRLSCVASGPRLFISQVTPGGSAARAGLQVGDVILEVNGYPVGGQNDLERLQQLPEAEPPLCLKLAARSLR
Experiment: holdup assay
Parameters: key: below the threshold = too weak to quantify, mostly under pKd 3.1 to 4
Conditions: plain residues with an end cap or a label only (N-terminal biotin on a linker: ttds)
experimental.readout: pKd

{"binder": "STLTIFETAL [ABCC4, O15439]", "experimental.readout": "pKd", "test.result": 4.24}
{"binder": "ERKLSSESQV [LRP4, O75096]", "experimental.readout": "pKd", "test.result": "below the threshold"}
{"binder": "VLRLQSETSV [VANGL1, Q8TAA9]", "experimental.readout": "pKd", "test.result": "below the threshold"}
{"binder": "SRPQRTQTQV [HPV67-E6, A4U7F2]", "experimental.readout": "pKd", "test.result": "below the threshold"}

Asked: Using the record for SSRTRRETQL [HPV16-E6, P03126] , report its pKd.
Given back: 3.61

Asked: Using the record for IYVPEAQTRL [DLGAP4, Q9Y2H0] , report its pKd.
Given back: below the threshold

Asked: Using the record for TVASEKESVM [SLC1A5, Q15758] , report its pKd.
Given back: below the threshold

Asked: Using the record for QSARYRDTEL [TJP2, Q9UDY2] , report its pKd.
Given back: 3.47

Asked: Using the record for RSLEEEESQL [GRASP, Q7Z6J2] , report its pKd.
Given back: below the threshold

Asked: Using the record for PKTPPTDTSV [KIR3DL3, Q8N743] , report its pKd.
Given back: below the threshold
